Below, each entry is listed with its recorded normalized intracellular growth.
test system: Salmonella enterica serovar Typhimurium SL1344; assay: normalized intracellular growth (luminescence, IQM-normalized) in RAW264.7 macrophages (fraction of plate interquartile mean); higher = more bacterial growth (less inhibition); details: 10 µM, time point: T3 (3 h)
In all, about 1,600 compounds were measured (“normalized intracellular growth (luminescence, IQM-normalized) in RAW264.7 macrophages”: median about 1, lowest 2% from about 0.43 on). What follows is part of a selection rich in the lowest values, with near analogues and random picks from the rest.
Please reply with the number alone, leaving off any unit.

CCn1cc(C(=O)O)c(=O)c2cc(F)c(N3CCNC(C)C3)c(F)c21 (stereo not drawn)    0.996

(Q) Need normalized intracellular growth, item CCn1cc(C(=O)O)c(=O)c2cnc(N3CCNCC3)nc21
(A) 0.974

(Q) Any idea what normalized intracellular growth was measured for CCn1cc(C(=O)O)c(=O)c2ccc(C)nc21 ?
(A) 0.994

---

test system: Salmonella enterica serovar Typhimurium SL1344; assay: normalized intracellular growth (luminescence, IQM-normalized) in RAW264.7 macrophages (fraction of plate interquartile mean); higher = more bacterial growth (less inhibition); conditions: 10 µM, time point: Tfinal (~6 h)
The full ranking holds about 1,600 compounds; the median of “normalized intracellular growth (luminescence, IQM-normalized) in RAW264.7 macrophages” is about 1, and the lowest 2% start at about 0.43. For the sample, the lowest values were picked, then their nearest neighbours and some compounds at random.
# maps each entry to its normalized intracellular growth
Respond with the number and no other words.

Example entries and their recorded answers appear below.
COc1cc2c3cc1Oc1cc(ccc1O)C[C@@H]1c4c(cc(OC)c(O)c4Oc4ccc(cc4)C[C@@H]3N(C)CC2)CC[N+]1(C)C    0.976
OCc1ccccc1O    1.01
S=C1SCN(Cc2ccccc2)CN1Cc1ccccc1    0.779

The record that follows has no normalized intracellular growth shown yet.
(Q) Suppose we examine the molecule CCN(CC)CCOc1ccc2c(c1)C(=O)c1cc(OCCN(CC)CC)ccc1-2 ; what normalized intracellular growth value has been reported?
(A) 1
